# Test system: Human hepatocytes (HepaRG cells)
# experiment.notes: human cytotoxicity assay in vitro (CellTiter-Glo), hepatocytes
# Format: cell-based
# details: cytotoxicity class
readout.type: cytotoxicity cell line H (hepatocytes)
Field format: numeric only.

[
  {
    "molecule": "Cc1[nH]c(-c2cc(C)n(-c3cccc(C(F)(F)F)c3)c2C)nc1-c1ccccc1 [Compound 36]",
    "target.system": "Human hepatocytes (HepaRG cells)",
    "cytotoxicity cell line H (hepatocytes)": 3
  },
  {
    "molecule": "Cc1[nH]c(-c2ccc(-c3ccccc3OC(F)(F)F)o2)nc1-c1ccccc1 [Compound 18]",
    "target.system": "Human hepatocytes (HepaRG cells)",
    "cytotoxicity cell line H (hepatocytes)": 2
  },
  {
    "molecule": "Cc1[nH]c(-c2ccc(-c3cccc(F)c3C)o2)nc1-c1ccccc1 [Compound 60]",
    "target.system": "Human hepatocytes (HepaRG cells)",
    "cytotoxicity cell line H (hepatocytes)": 3
  },
  {
    "molecule": "FC(F)(F)Oc1ccccc1-c1ccc(-c2ncc(-c3ccccc3)[nH]2)o1 [Compound 63]",
    "target.system": "Human hepatocytes (HepaRG cells)",
    "cytotoxicity cell line H (hepatocytes)": 2
  },
  {
    "molecule": "Cc1[nH]c(-c2ccc(-c3ccccc3C(F)(F)F)o2)nc1-c1ccccc1 [Compound 17]",
    "target.system": "Human hepatocytes (HepaRG cells)",
    "cytotoxicity cell line H (hepatocytes)": 3
  },
  {
    "molecule": "Cc1nc(-c2ccc(-c3ccccc3OC(F)(F)F)o2)[nH]c1-c1cccc(Cl)c1 [Compound 21]",
    "target.system": "Human hepatocytes (HepaRG cells)",
    "cytotoxicity cell line H (hepatocytes)": 3
  },
  {
    "molecule": "Cc1nc(-c2ccc(-c3ccc(Cl)c(OC(F)(F)F)c3)o2)[nH]c1-c1ccc(Cl)cc1 [Compound 44]",
    "target.system": "Human hepatocytes (HepaRG cells)",
    "cytotoxicity cell line H (hepatocytes)": 2
  },
  {
    "molecule": "Cc1[nH]c(-c2ccc(-c3ccccc3Cl)o2)nc1-c1ccccc1 [Compound 3]",
    "target.system": "Human hepatocytes (HepaRG cells)",
    "cytotoxicity cell line H (hepatocytes)": 3
  }
]

Problem: I'd like to know its cytotoxicity cell line H (hepatocytes). The molecule in question is Cc1[nH]c(-c2ccc(-c3cccc(Cl)c3Cl)o2)nc1-c1ccccc1 [Compound 2]
Solution: 2

Problem: I'd like to know its cytotoxicity cell line H (hepatocytes). The molecule in question is CCc1ccc(-c2ccc(-c3nc(-c4ccccc4)c(C)[nH]3)o2)cc1 [Compound 53]
Solution: 3

Problem: I'd like to know its cytotoxicity cell line H (hepatocytes). The molecule in question is FC(F)(F)Oc1ccccc1-c1ccc(-c2nc(-c3ccc(Cl)cc3Cl)c[nH]2)o1 [Compound 68]
Solution: 2
